This collection of values is drawn from patent US20170319688A1.

Assay target: T1, cynomolgus RSPO3 (cynomolgus, UniProt A0A2K5UTQ7 22-273)
T1 construct: also called cyno RSPO3
T1 sequence: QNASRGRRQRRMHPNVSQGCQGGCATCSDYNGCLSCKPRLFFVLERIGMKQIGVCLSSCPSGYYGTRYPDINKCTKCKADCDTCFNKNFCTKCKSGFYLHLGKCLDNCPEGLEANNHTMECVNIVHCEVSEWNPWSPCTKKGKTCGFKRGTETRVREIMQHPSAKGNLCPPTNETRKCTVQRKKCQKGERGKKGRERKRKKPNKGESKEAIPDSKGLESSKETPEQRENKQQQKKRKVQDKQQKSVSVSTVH
Assay details: SPR (BIAcore T200), RSPO3 immobilized, antibody injected, 25 C, 1:1 Langmuir

[
  {
    "Binder": "hu11C10.L5H1 (antibody, V domains shown, CDR graft light chain L5 with H1; also called humanized 11C10) VH: EVQLVESGGGVVQPGRSLRLSCAASGFTFSDYDMAWVRQAPGKGLEWVATIIYDGSRTYYRDSVKGRFTISRDNSKNTLYLQMNSLRAEDTAVYYCATHDKTFDYWGQGTMVTVSS VL: DIQLTQSPSSLSASVGDRVTITCRASEDIYSDLAWYQQKPGKAPKLLIYDVNSLIHGVPSRFSGSGSGTDFTLTISSLQPEDFATYYCQQYDNYPNTFGQGTKLEIK",
    "Units text": "s⁻¹",
    "koff": 0.00121
  },
  {
    "Binder": "hu4A6.L4H2 (antibody, V domains shown, CDR graft only (L4, H2); also called humanized 4A6) VH: EVQLVESGGGVVQPGRSLRLSCAASGFTFSDYDMAWVRQAPGKGLEWVATIIYDGSRTYYRDSVKGRFTISRDNSKNTLYLQMNSLRAEDTAVYYCAAHDRSFDYWGQGTMVTVSS VL: DIQMTQSPSSLSASVGDRVTITCLASEDISNDLVWYQQKPGKAPKLLIYAASRLQDGVPSRFSGSGFGTDFTLTISSLQPEDFATYYCQQSYKYLPTFGQGTKLEIK",
    "Units text": "s⁻¹",
    "koff": "5.95e-05"
  },
  {
    "Binder": "chimeric 15F3 (antibody, V domains shown, Chimeric counterpart with the rat 15F3 variable domains) VH: EVQLVESGGGLVQPGRSLKLSCAASGFTFSDYDMAWVRQAPKKGLEWVATIIYDGSRAYFGDSVRGRFTVSRDNTKSTLYLQMDSLRSEDTATYYCTAHDRSFDYWGQGVMVTVSS VL: DIQMTQSPASLSASLGETVSIECLVSEDISNDFVWYQQKSGKSPQLLIYAASRLQDGVPSRFSGSGSGTRFSLRISGMQPEDEAEYFCQQSYKYPPTFGAGTKLELK",
    "Units text": "s⁻¹",
    "koff": 0.000121
  }
]
